# Assayed target: ActRIIA and ActRIIB (on TGFB/SMAD SBE Reporter HEK293 cells) (human)
# Sequence (chain, as listed by the source, chain 1 of 2): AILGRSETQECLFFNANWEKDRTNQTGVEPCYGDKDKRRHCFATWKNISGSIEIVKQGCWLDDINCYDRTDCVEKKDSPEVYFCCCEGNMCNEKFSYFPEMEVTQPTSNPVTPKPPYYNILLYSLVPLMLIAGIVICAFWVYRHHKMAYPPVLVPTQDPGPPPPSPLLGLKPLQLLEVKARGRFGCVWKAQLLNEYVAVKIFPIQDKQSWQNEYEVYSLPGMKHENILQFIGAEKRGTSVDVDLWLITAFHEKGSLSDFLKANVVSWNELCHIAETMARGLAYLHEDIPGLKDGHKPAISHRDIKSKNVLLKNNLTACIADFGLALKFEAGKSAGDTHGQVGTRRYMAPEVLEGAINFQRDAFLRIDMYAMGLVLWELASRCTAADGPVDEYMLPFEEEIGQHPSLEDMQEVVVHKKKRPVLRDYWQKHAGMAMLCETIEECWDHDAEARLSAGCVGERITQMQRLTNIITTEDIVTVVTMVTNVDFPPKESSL
# Sequence (chain, as listed by the source, chain 2 of 2): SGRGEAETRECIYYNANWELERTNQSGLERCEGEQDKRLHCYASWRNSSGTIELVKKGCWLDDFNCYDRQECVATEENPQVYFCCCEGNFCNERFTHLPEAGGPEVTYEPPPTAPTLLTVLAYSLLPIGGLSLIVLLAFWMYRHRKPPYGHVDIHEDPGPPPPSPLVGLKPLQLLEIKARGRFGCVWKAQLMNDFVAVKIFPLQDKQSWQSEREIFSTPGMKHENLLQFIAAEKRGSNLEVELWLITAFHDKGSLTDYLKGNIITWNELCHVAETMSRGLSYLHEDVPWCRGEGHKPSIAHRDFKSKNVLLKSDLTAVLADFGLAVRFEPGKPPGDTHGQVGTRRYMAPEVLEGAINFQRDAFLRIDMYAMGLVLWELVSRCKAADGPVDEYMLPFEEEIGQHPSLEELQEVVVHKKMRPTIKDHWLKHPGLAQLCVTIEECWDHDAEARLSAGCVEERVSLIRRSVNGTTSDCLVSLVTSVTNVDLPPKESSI
# Procedure text: cell-based or functional assay
Measurement kind: IC99, Myostatin SMAD RGA

Here's what some known entries look like.
Antibody Schwardamaga (antibody, V domains shown, full-length IgG) VH: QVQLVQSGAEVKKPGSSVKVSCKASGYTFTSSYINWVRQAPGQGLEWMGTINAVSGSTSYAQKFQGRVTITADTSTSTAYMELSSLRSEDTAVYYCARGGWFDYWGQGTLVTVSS VL: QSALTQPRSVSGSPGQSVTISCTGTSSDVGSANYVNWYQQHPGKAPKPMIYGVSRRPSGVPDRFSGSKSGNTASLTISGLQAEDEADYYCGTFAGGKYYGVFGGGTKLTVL = 425 nM
Antibody Ofaschlupfer (antibody, V domains shown, full-length IgG) VH: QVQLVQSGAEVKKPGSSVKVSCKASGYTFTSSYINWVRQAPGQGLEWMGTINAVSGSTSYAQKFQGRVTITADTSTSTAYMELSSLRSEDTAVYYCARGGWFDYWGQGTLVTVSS VL: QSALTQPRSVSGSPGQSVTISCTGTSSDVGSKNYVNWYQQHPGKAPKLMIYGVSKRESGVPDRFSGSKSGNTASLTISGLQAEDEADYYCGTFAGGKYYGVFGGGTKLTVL = 1240 nM
Antibody Soidawürstle (antibody, V domains shown, full-length IgG; also called Soidawüsrstel) VH: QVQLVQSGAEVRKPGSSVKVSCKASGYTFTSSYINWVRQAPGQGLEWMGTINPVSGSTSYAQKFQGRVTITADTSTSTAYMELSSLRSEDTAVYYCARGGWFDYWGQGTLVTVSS VL: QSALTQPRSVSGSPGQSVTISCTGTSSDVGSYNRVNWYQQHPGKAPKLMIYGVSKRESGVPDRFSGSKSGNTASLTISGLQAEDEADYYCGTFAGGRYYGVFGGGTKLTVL = 2000 nM

Next up:
Query: IC99, Myostatin SMAD RGA; subject: Bimagrumab (antibody, V domains shown) VH: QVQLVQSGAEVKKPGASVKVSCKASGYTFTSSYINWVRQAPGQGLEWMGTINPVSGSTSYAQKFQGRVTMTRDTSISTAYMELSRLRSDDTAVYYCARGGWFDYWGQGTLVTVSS VL: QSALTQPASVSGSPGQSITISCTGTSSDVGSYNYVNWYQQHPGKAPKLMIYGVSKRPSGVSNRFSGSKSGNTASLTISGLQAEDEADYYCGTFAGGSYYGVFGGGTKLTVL
2680 nM
